# Target or system: Estrogen receptor (Homo sapiens, UniProt P03372); note: assay procedure not described here
# Sequence (P03372 whole entry): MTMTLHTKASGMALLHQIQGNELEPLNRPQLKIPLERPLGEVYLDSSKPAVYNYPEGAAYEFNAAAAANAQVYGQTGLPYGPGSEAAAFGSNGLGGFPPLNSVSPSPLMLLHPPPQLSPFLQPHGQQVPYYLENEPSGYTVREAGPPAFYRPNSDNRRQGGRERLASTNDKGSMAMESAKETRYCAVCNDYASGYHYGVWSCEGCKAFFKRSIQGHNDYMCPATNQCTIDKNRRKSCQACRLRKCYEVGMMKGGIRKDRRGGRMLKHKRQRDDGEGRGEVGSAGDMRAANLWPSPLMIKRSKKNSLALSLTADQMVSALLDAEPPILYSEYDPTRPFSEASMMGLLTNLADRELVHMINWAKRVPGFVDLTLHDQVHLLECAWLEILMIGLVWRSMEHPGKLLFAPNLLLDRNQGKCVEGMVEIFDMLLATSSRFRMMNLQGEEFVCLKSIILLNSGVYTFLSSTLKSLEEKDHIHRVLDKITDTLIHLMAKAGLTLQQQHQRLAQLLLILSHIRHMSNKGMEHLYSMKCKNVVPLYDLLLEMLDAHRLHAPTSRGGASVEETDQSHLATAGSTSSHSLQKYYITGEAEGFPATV
Please respond with reported AC50 for every item in the list.

Item: O=C(C[S+]([O-])C(c1ccccc1)c1ccccc1)NO (centres undefined) | AC50: > 30 µM

Item: Oc1ncnc2[nH]ncc12 | AC50: > 30 µM

Item: NC(=O)c1cnccn1 [PYRAZINAMIDE] | AC50: > 30 µM

Item: COc1cc(Nc2c(C#N)cnc3cc(OCCCN4CCN(C)CC4)c(OC)cc23)c(Cl)cc1Cl | AC50: > 30 µM

Item: CCCCCCCCOc1ccccc1C(=O)Nc1ccc(C(=O)OCC[N+](C)(CC)CC)cc1 [OTILONIUM BROMIDE] | AC50: > 30 µM

Item: NS(=O)(=O)c1cc(-c2nnn[nH]2)c(NCc2cccs2)cc1Cl [AZOSEMIDE] | AC50: > 30 µM

Item: O=C(Nc1ccccc1)OCC(CN1CCCCC1)OC(=O)Nc1ccccc1 (centres undefined) | AC50: > 30 µM

Item: CN1CC[C@]23CCCC[C@H]2[C@H]1Cc1ccc(O)cc13 | AC50: > 10 µM

Item: CC(C)NCC1CCc2cc(CO)c([N+](=O)[O-])cc2N1 (centres undefined) | AC50: > 10 µM

Item: CCNC(C)Cc1cccc(C(F)(F)F)c1 (centres undefined) | AC50: > 30 µM

Item: CCC(C(=O)O)c1ccc(CC(C)C)cc1 (centres undefined) | AC50: > 30 µM

Item: O=P(O)(O)C(O)(Cc1cccnc1)P(=O)(O)O | AC50: > 30 µM

Item: C#CCN[C@@H]1CCc2ccccc21 | AC50: > 30 µM

Item: Cc1cccc(C)c1NC(=O)C1CCCCN1C (centres undefined) [MEPIVACAINE] | AC50: > 30 µM

Item: CN[C@@H](C)[C@H](O)c1ccccc1 | AC50: > 30 µM

Item: NC[C@H]1O[C@H](O[C@H]2[C@H](O)[C@@H](O[C@H]3O[C@H](CO)[C@@H](O)[C@H](N)[C@H]3O)[C@H](N)C[C@@H]2N)[C@H](O)[C@@H](O)[C@@H]1O | AC50: > 10 µM

Item: CC1=CC(=O)c2ccccc2C1=O | AC50: > 30 µM

Item: CC(C)C(=O)OCC(=O)[C@@]12O[C@H](C3CCCCC3)O[C@@H]1C[C@H]1[C@@H]3CCC4=CC(=O)C=C[C@]4(C)[C@H]3[C@@H](O)C[C@@]12C [CICLESONIDE] | AC50: > 30 µM

Item: CCCCCCCCCCCC[N+](C)(C)CCOc1ccccc1 | AC50: 5 µM
